# Procedure summary: Observed AUCinfinity in CD-1 mouse at 1 mg/kg, iv by LC-MS/MS analysis
# Format: ADME, organism-based
# Parameters: dose 1 mg/kg, route iv
# Measurement conditions: in vivo
Recorded endpoint: AUC(0-inf)

Problem: Tell me AUC(0-inf) reported for CCCc1ccc(OCc2ccc(C(=O)O)o2)cc1OC
Solution: 1250 ng·h/mL

---

# Procedure summary: Observed clearance in CD-1 mouse at 1 mg/kg, iv by LC-MS/MS analysis
# Format: ADME, organism-based
# Measurement conditions: in vivo
Recorded endpoint: clearance

Problem: Tell me clearance reported for CCCc1ccc(OCc2ccc(C(=O)O)o2)cc1OC
Solution: 13.5 mL/min/kg

---

# Procedure summary: Half life in CD-1 mouse at 1 mg/kg, iv by LC-MS/MS analysis
# Type: ADME, organism-based
# Measurement conditions: in vivo
Recorded endpoint: half-life (min)
Value expressed in min; do not type the unit.

Problem: Tell me half-life reported for CCCc1ccc(OCc2ccc(C(=O)O)o2)cc1OC
Solution: 49.7

---

# Procedure summary: Half life in CD-1 mouse at 3 mg/kg, po by LC-MS/MS analysis
# Type: ADME, organism-based
# Measurement conditions: in vivo
Recorded endpoint: half-life (h)
Value expressed in h; do not type the unit.

Problem: Tell me half-life reported for CCCc1ccc(OCc2ccc(C(=O)O)o2)cc1OC
Solution: 2.26

---

# Procedure summary: Oral bioavailability in CD-1 mouse at 10 mg/kg by LC-MS/MS analysis
# Type: ADME, organism-based
# Measurement conditions: in vivo
Recorded endpoint: bioavailability (%)
Value expressed in %; do not type the unit.

Problem: Tell me bioavailability reported for CCCc1ccc(OCc2ccc(C(=O)O)o2)cc1OC
Solution: 78.9

---

# Test system: Hepatocyte
# Procedure summary: Inhibition of gluconeogenesis in Sprague-Dawley rat hepatocytes at 1 uM incubated for 1.5 hrs followed by sodium pyruvate and sodium lactate addition and measured after 4 hrs by colorimetric analysis relative to control
# Assay type: functional
# Measurement conditions: time 5.5 hrs
Kindly apply the following: 1.0 if fold change (FC) is less than 1, 0.0 in every other case.

[[record]]
mol = "COc1cc(Cl)ccc1OCc1ccc(C(=O)O)o1"
group_label = 1.0


Problem: Determine whether this compound shows fold change (FC) lower than 1 (ties excluded): CCCc1ccc(OCc2ccc(C(=O)O)o2)cc1OC
Solution: 1.0

Problem: Determine whether this compound shows fold change (FC) lower than 1 (ties excluded): CCCc1ccc(OCc2ccc(C(=O)O)o2)c(NC)c1
Solution: 1.0

Problem: Determine whether this compound shows fold change (FC) lower than 1 (ties excluded): C=CCc1ccc(OCc2ccc(C(=O)O)o2)c(OC)c1
Solution: 1.0

Problem: Determine whether this compound shows fold change (FC) lower than 1 (ties excluded): CCCc1ccc(OCc2ccc(C(=O)O)o2)c(OC)c1
Solution: 0.0

---

# Procedure summary: Tmax in CD-1 mouse at 3 mg/kg, po by LC-MS/MS analysis
# Format: ADME, organism-based
# Measurement conditions: in vivo
Recorded endpoint: Tmax (min)
Value expressed in min; do not type the unit.

Problem: Tell me Tmax reported for CCCc1ccc(OCc2ccc(C(=O)O)o2)cc1OC
Solution: 15

---

# Procedure summary: AUC(last) in CD-1 mouse at 1 mg/kg, iv by LC-MS/MS analysis
# Format: ADME, organism-based
# Parameters: dose 1 mg/kg, route iv
# Measurement conditions: in vivo
Recorded endpoint: AUC(0-t) (ng·h/mL)
Value expressed in ng·h/mL; do not type the unit.

Problem: Tell me AUC(0-t) reported for CCCc1ccc(OCc2ccc(C(=O)O)o2)cc1OC
Solution: 1220

---

# System: Hepatocyte
# Procedure summary: Inhibition of gluconeogenesis in Sprague-Dawley rat hepatocytes at 3 uM incubated for 1.5 hrs followed by sodium pyruvate and sodium lactate addition and measured after 4 hrs by colorimetric analysis relative to control
# Assay type: functional
# Measurement conditions: time 5.5 hrs
Kindly apply the following: TRUE if fold change (FC) is less than 0.6, FALSE in every other case.

Reference set (5 entries):
[[record]]
mol = "CCCc1ccc(OCc2ccc(C(=O)O)o2)c(OC)c1"
group_label = "FALSE"

[[record]]
mol = "Cc1cc(Br)ccc1OCc1ccc(C(=O)O)o1"
group_label = "TRUE"

[[record]]
mol = "CCCc1ccc(OCc2ccc(C(=O)O)o2)cc1OC"
group_label = "TRUE"

[[record]]
mol = "C=CCc1ccc(OCc2ccc(C(=O)O)o2)c(OC)c1"
group_label = "FALSE"

[[record]]
mol = "COc1cc(Cl)ccc1OCc1ccc(C(=O)O)o1"
group_label = "TRUE"


Next molecule, please.
Problem: Determine whether this molecule shows fold change (FC) lower than 0.6 (ties excluded): CCCc1ccc(OCc2ccc(C(=O)O)o2)c(NC)c1
Solution: TRUE

---

# Procedure summary: Observed AUCinfinity in CD-1 mouse at 30 mg/kg, po by LC-MS/MS analysis
# Assay type: ADME, organism-based
# Parameters: dose 30 mg/kg, route po
# Measurement conditions: in vivo
Recorded endpoint: AUC(0-inf) (ng·h/mL)
Value expressed in ng·h/mL; do not type the unit.

Problem: Tell me AUC(0-inf) reported for CCCc1ccc(OCc2ccc(C(=O)O)o2)cc1OC
Solution: 52800

---

# Procedure summary: Tmax in CD-1 mouse at 10 mg/kg, po by LC-MS/MS analysis
# Assay type: ADME, organism-based
# Measurement conditions: in vivo
Recorded endpoint: Tmax (min)
Value expressed in min; do not type the unit.

Problem: Tell me Tmax reported for CCCc1ccc(OCc2ccc(C(=O)O)o2)cc1OC
Solution: 15

---

# Procedure summary: Observed AUCinfinity in CD-1 mouse at 10 mg/kg, po by LC-MS/MS analysis
# Type: ADME, organism-based
# Design: dose 10 mg/kg, route po
# Measurement conditions: in vivo
Recorded endpoint: AUC(0-inf) (ng·h/mL)
Value expressed in ng·h/mL; do not type the unit.

Problem: Tell me AUC(0-inf) reported for CCCc1ccc(OCc2ccc(C(=O)O)o2)cc1OC
Solution: 9620

---

# Procedure summary: Observed MRTinfinity in CD-1 mouse at 10 mg/kg, po by LC-MS/MS analysis
# Type: ADME, organism-based
# Measurement conditions: in vivo
Recorded endpoint: MRT inf (h)
Value expressed in h; do not type the unit.

Problem: Tell me MRT inf reported for CCCc1ccc(OCc2ccc(C(=O)O)o2)cc1OC
Solution: 2.31

---

# Procedure summary: Cmax in CD-1 mouse at 30 mg/kg, po by LC-MS/MS analysis
# Type: ADME, organism-based
# Parameters: dose 30 mg/kg, route po
# Measurement conditions: in vivo
Recorded endpoint: Cmax (ng/mL)
Value expressed in ng/mL; do not type the unit.

Problem: Tell me Cmax reported for CCCc1ccc(OCc2ccc(C(=O)O)o2)cc1OC
Solution: 41000

---

# Procedure summary: Half life in CD-1 mouse at 10 mg/kg, po by LC-MS/MS analysis
# Format: ADME, organism-based
# Measurement conditions: in vivo
Recorded endpoint: half-life (h)
Value expressed in h; do not type the unit.

Problem: Tell me half-life reported for CCCc1ccc(OCc2ccc(C(=O)O)o2)cc1OC
Solution: 3.12

---

# Procedure summary: Observed AUCinfinity in CD-1 mouse at 3 mg/kg, po by LC-MS/MS analysis
# Assay type: ADME, organism-based
# Parameters: dose 3 mg/kg, route po
# Measurement conditions: in vivo
Recorded endpoint: AUC(0-inf) (ng·h/mL)
Value expressed in ng·h/mL; do not type the unit.

Problem: Tell me AUC(0-inf) reported for CCCc1ccc(OCc2ccc(C(=O)O)o2)cc1OC
Solution: 2480

---

# Procedure summary: Observed MRTinfinity in CD-1 mouse at 1 mg/kg, iv by LC-MS/MS analysis
# Format: ADME, organism-based
# Measurement conditions: in vivo
Recorded endpoint: MRT inf (min)
Value expressed in min; do not type the unit.

Problem: Tell me MRT inf reported for CCCc1ccc(OCc2ccc(C(=O)O)o2)cc1OC
Solution: 47.9

---

# Procedure summary: AUC(last) in CD-1 mouse at 3 mg/kg, po by LC-MS/MS analysis
# Format: ADME, organism-based
# Parameters: dose 3 mg/kg, route po
# Measurement conditions: in vivo
Recorded endpoint: AUC(0-t) (ng·h/mL)
Value expressed in ng·h/mL; do not type the unit.

Problem: Tell me AUC(0-t) reported for CCCc1ccc(OCc2ccc(C(=O)O)o2)cc1OC
Solution: 2430

---

# Procedure summary: Half life in CD-1 mouse at 1 mg/kg, po by LC-MS/MS analysis
# Assay type: ADME, organism-based
# Measurement conditions: in vivo
Recorded endpoint: half-life (h)
Value expressed in h; do not type the unit.

Problem: Tell me half-life reported for CCCc1ccc(OCc2ccc(C(=O)O)o2)cc1OC
Solution: 1.8

---

# Procedure summary: AUC(last) in CD-1 mouse at 30 mg/kg, po by LC-MS/MS analysis
# Type: ADME, organism-based
# Design: dose 30 mg/kg, route po
# Measurement conditions: in vivo
Recorded endpoint: AUC(0-t) (ng·h/mL)
Value expressed in ng·h/mL; do not type the unit.

Problem: Tell me AUC(0-t) reported for CCCc1ccc(OCc2ccc(C(=O)O)o2)cc1OC
Solution: 52700
